All values here come from patent US5554615A.

Test system: human rhinopharyngeal cancer cell KB
Assay: Inhibitory activity against proliferation of oncocyte, KB (MTT method)
Assay type: cell-based
Settings: 72 h, Table 2-B, KB, 3 days, read-out: Proliferation-inhibitory activity IC50
Measured Parameter: IC50 (nM)
// note: answer is a bare numeric in nM

Solved cases below.
For Nc1nc(N)c2c(n1)CCC2CCc1ccc(C(=O)N[C@@H](CCC(=O)O)C(=O)O)cc1 (stereo partly shown) [Ex. 103] the molecule record lists IC50 as 3.8

IC50 reported for this molecule Nc1nc(N)c2c(n1)CCC2CCCc1ccc(C(=O)N[C@@H](CCC(=O)O)C(=O)O)s1 (stereo partly shown) [Ex. 105] : 0.92

Further cases:
For record CN(Cc1cnc2nc(N)nc(N)c2n1)c1ccc(C(=O)N[C@@H](CCC(=O)O)C(=O)O)cc1 [MTX, Methotrexate, reference compound] the listed IC50 is 11

Record summary for Nc1nc(N)c2c(n1)CCC2CCCc1ccc(C(=O)N[C@@H](CCC(=O)O)C(=O)O)cc1 (stereo partly shown) [Ex. 108] : reported IC50 = 1.6

###

Molecular target: dihydrofolate reductase (DHFR) (Mus musculus)
Construct: DHFR was prepared from mouse leukemic cell P388; endogenous in cells
Sequence (P00375 1-187): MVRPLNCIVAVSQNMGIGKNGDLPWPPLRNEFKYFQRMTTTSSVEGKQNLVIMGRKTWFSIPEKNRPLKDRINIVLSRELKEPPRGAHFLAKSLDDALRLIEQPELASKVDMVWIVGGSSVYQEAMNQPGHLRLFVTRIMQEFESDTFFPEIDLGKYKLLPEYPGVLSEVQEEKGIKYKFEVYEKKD
Test: Inhibitory activity against dihydrofolate reductase (DHFR)
Measured Parameter: pIC50
Keep in mind that pIC50 stands for -log10 of concentration in molar terms.

Nc1nc(N)c2c(ccn2CCCc2ccc(C(=O)N[C@@H](CCC(=O)O)C(=O)O)cc2)n1 yielded pIC50 of 7.01

Noted for Nc1nc(N)c2c(n1)CCC2CCc1ccc(C(=O)N[C@@H](CCC(=O)O)C(=O)O)cc1 (stereo partly drawn) : its pIC50 reads 7.14

Next up:
The measured pIC50 associated with CC(CCn1ccc2nc(N)nc(N)c21)c1ccc(C(=O)N[C@@H](CCC(=O)O)C(=O)O)cc1 (stereo partly drawn) reads 7.05
